# System: HLA-A2 molecule (Homo sapiens, UniProt P04439, I166T/I218V/L300P/L318F/N151K/N90K/P208A/P217A/Q86G/Q94H/R138H/R169H/T345S)
# Experiment: T2 cell binding assay: peptide binding to HLA-A2 by flow cytometry
# Details: Table 4; P-92 analogues
Outcome Measure: T2 binding

>>> measured_result("AMWGQDVTSL [M-93/L-101]")
"325 relative fluorescence values"
>>> measured_result("ALWGQDVTSL [L-93/L-101]")
"736 relative fluorescence values"
>>> measured_result("AMWGQDVTSV [Peptide M-93]")
"723 relative fluorescence values"
>>> measured_result("ATWGQDVTSV [Peptide P-92]")
"510 relative fluorescence values"
>>> measured_result("AIWGQDVTSV [Peptide P-93I]")
"823 relative fluorescence values"
>>> measured_result("ALWGQDVTSV [Peptide P-93L, MUC-1 agonist peptide]")
"821 relative fluorescence values"
>>> measured_result("AIWGQDVTSL [I-93/L-101]")
"280 relative fluorescence values"
